- SYSTEM: CDK7/cyclinH/MAT1 trimeric complex (Homo sapiens, UniProt P50613)
- Sequence (P50613 whole entry): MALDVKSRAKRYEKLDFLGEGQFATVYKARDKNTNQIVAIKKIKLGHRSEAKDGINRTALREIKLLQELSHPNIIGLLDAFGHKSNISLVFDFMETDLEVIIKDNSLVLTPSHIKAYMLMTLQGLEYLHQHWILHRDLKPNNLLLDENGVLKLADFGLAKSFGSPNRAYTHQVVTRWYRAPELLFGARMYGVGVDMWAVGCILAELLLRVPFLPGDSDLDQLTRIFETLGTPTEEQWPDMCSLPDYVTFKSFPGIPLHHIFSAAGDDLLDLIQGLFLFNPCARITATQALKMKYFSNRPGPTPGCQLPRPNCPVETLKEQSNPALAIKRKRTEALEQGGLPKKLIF
- Sequence (P51946 whole entry partner): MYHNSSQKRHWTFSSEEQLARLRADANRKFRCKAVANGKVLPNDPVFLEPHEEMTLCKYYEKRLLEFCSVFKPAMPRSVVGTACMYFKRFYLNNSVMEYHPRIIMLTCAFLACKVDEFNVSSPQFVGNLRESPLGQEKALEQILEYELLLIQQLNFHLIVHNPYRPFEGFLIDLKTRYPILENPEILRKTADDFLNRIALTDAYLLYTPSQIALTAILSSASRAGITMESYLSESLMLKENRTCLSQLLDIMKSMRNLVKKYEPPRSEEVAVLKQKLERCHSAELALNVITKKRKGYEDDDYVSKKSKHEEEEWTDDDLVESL
- Sequence (P51948 whole entry partner): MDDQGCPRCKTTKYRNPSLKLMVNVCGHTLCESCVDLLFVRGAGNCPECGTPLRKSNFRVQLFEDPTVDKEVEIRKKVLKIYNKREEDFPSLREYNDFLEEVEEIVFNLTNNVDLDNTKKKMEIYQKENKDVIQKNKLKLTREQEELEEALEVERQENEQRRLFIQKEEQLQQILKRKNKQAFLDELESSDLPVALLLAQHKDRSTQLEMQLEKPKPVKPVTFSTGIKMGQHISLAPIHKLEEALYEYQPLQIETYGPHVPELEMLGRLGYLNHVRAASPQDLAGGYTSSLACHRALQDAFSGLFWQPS
- PROTOCOL: In vitro CDK7 assay, potency of irreversible covalent inhibitors (kinact/KI), coupled PK/LDH ADP readout at 340 nm
- CONDITION_NOTES: read-out: CDK7 (20 nM enz.) (kinact/KI, M^−1*s^−1), 20 nM enzyme
Criterion: kinact/KI meeting or surpassing 800 M⁻¹ s⁻¹. Met: 1. Not met: 0.

{"MOLECULE": "CC#CC(=O)N1CC[C@H](N2CC(c3cc4c(c(C5CC5)n3)OCc3c(N5CCOCC5)ccnc3N4)C2)C1 (single isomer, unassigned)", "SYSTEM": "CDK7/cyclinH/MAT1 trimeric complex (Homo sapiens, UniProt P50613)", "CLASS": 0}

INPUT: Please indicate if the recorded kinact/KI for C=CC(=O)N1CC(N2CCC(c3cc4c(c(C)n3)OCc3c(N5CCOCC5)ccnc3N4)N(C)CC2)C1 (stereo not drawn) meets or exceeds 800 M⁻¹ s⁻¹.
OUTPUT: 0

INPUT: Queued: C=CC(=O)N1CC(N2CCC(c3cc(F)c4c(c3)Nc3nccc(N5CCOCC5)c3CO4)CC2)C1
OUTPUT: 1

INPUT: Queued: C=CC(=O)N1CC(N2CCC(c3cc4c(cn3)OCc3c(N5CCOCC5)ccnc3N4)CC2)C1
OUTPUT: 1

Provenance of the data: patent US20240254138A1
